System: K-562
Assay: NCI-60 one-dose screen, K-562
Assay type: cell-based
Details: Homo sapiens, K562; K-562, leukaemia; single dose 10 μM; read-out: Growth inhibition %
READOUT_TYPE: inhibition at 10 µM (%)
One number for each entry, in %.

| SMILES_REPR | TESTED_ON | UNIT_ABBREVIATION | inhibition at 10 µM |
| --- | --- | --- | --- |
| C1=Cc2ccccc2N(c2nnc(-c3ccccc3)o2)c2ccccc21 | K-562 | % | 32.2 |
| Cc1ccc(-c2nnc(N3c4ccccc4C=Cc4ccccc43)o2)cc1 | K-562 | % | 47.8 |
| C1=Cc2ccccc2N(c2nnc(Cc3ccccc3)o2)c2ccccc21 | K-562 | % | 14.9 |
| O=C(NNC(=O)N1c2ccccc2C=Cc2ccccc21)c1ccc2ccccc2c1 | K-562 | % | 12.8 |
| Clc1ccc(-c2nnc(N3c4ccccc4C=Cc4ccccc43)o2)cc1 | K-562 | % | 54 |
| C1=Cc2ccccc2N(c2nnc(-c3ccc4ccccc4c3)o2)c2ccccc21 | K-562 | % | 34 |

Would you mind giving inhibition at 10 µM for every compound in the list below?
1. Brc1ccc(-c2nnc(N3c4ccccc4C=Cc4ccccc43)o2)cc1
2. O=[N+]([O-])c1ccc(-c2nnc(N3c4ccccc4C=Cc4ccccc43)o2)cc1

## Output
[54.5, 25.3]

----------
Assign inhibition at 10 µM to each entry below.
Test system: COLO 205
Test: NCI-60 one-dose screen, COLO 205
Format: cell-based
Details: Homo sapiens; COLO 205, colon cancer; single dose 10 μM; read-out: Growth inhibition %
Give bare numbers, in %.

| SMILES_REPR | inhibition at 10 µM [%] |
| --- | --- |
| Cc1ccc(-c2nnc(N3c4ccccc4C=Cc4ccccc43)o2)cc1 | 19.4 |

## Input Report inhibition at 10 µM for Brc1ccc(-c2nnc(N3c4ccccc4C=Cc4ccccc43)o2)cc1
## Output 15.4

----------
Exercise: state measured inhibition at 10 µM for each of the molecules provided.
Tested on: OVCAR-8
Experiment: NCI-60 one-dose screen, OVCAR-8
Assay type: cell-based
Settings: Homo sapiens; OVCAR-8, ovarian cancer; single dose 10 μM; read-out: Growth inhibition %

# count of solved cases: 6
| SMILES_REPR | MEASUREMENT |
| --- | --- |
| O=[N+]([O-])c1ccc(-c2nnc(N3c4ccccc4C=Cc4ccccc43)o2)cc1 | 1.15% |
| Clc1ccc(-c2nnc(N3c4ccccc4C=Cc4ccccc43)o2)cc1 | 24% |
| O=C(NNC(=O)N1c2ccccc2C=Cc2ccccc21)c1ccc(Cl)cc1 | < 10% |
| Brc1ccc(-c2nnc(N3c4ccccc4C=Cc4ccccc43)o2)cc1 | 28.6% |
| C1=Cc2ccccc2N(c2nnc(-c3ccc4ccccc4c3)o2)c2ccccc21 | 9.31% |
| Cc1ccc(-c2nnc(N3c4ccccc4C=Cc4ccccc43)o2)cc1 | 11.5% |

Your task in this section: give inhibition at 10 µM for each listed record.
1. Cc1ccc(C(=O)NNC(=O)N2c3ccccc3C=Cc3ccccc32)cc1
2. O=C(Cc1ccccc1)NNC(=O)N1c2ccccc2C=Cc2ccccc21
3. O=C(NNC(=O)N1c2ccccc2C=Cc2ccccc21)c1ccccc1

## Output
< 10%
< 10%
< 10%

----------
Assay: Cytotoxic effect against normal cell line
Assay type: cell-based
Settings: human, normal cell line PSC-800-011; read-out: Cytotoxicity IC50, PSC-800-011
READOUT_TYPE: pIC50
Numbers only, as −log10 of the molar value.

| COMPOUND | READOUT_TYPE | MEASUREMENT |
| --- | --- | --- |
| COc1cccc2c1C(=O)c1c(O)c3c(c(O)c1C2=O)C[C@@](O)(C(=O)CO)C[C@@H]3O[C@H]1C[C@H](N)[C@H](O)[C@H](C)O1 [Doxorubicin, reference compound] | pIC50 | 4.89 |

## Input Given the compound O=[N+]([O-])c1ccc(-c2nnc(N3c4ccccc4C=Cc4ccccc43)o2)cc1 , write its reported pIC50.
## Output 4.36
